meta.source: patent US20100035871A1

biological target: human 5-HT2C receptor (Homo sapiens, UniProt P28335); construct: expressed in transfected cells; host or cells: CHO (Chinese Hamster Ovary) cells; membrane preparation; assay: 5-HT2C receptor binding, [125I]DOI displacement, membranes of transfected CHO cells; details: read-out: 5-HT2C Binding Ki avg
Sequence (P28335 33-458): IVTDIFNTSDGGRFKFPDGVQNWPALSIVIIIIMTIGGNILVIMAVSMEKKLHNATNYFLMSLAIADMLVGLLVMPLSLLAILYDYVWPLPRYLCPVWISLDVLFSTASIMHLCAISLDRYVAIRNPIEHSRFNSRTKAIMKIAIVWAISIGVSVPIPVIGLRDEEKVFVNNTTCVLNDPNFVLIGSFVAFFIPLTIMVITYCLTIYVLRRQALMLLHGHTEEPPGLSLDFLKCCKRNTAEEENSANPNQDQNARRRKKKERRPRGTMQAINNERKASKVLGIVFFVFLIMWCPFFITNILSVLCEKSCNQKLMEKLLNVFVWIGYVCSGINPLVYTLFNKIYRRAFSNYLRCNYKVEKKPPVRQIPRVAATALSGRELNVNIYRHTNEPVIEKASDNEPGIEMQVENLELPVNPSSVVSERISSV
// assign true (1) if Ki falls strictly below 0.01 µM, else false (0) (ties count as false (0))

Some entries whose results are on file:
# compound, target_or_test_system, class_name
measured = [
    ("NC[C@@H]1CNc2cccc(-c3ccccc3F)c2O1 [Example 43]", "human 5-HT2C receptor (Homo sapiens, UniProt P28335)", "false (0)"),
    ("COc1ccc(-c2cccc3c2OC(CN)CN3C)c(C)c1 (racemic) [Example 5]", "human 5-HT2C receptor (Homo sapiens, UniProt P28335)", "false (0)"),
    ("CN1CC(CN)Oc2c(-c3ccccc3C(F)(F)F)cccc21 (racemic) [Example 4]", "human 5-HT2C receptor (Homo sapiens, UniProt P28335)", "true (1)"),
]

[Q] Please let me know if Cc1cc(Cl)ccc1-c1cccc2c1O[C@@H](CN)CN2 [Example 48] shows Ki below 0.01 µM.
[A] false (0)

[Q] Cool, now NCC1COc2cc(Cl)cc(-c3ccccc3)c2N1 (racemic) [Example 29]
[A] false (0)

[Q] Cool, now CN1CC(CN)Oc2c(-c3ccccc3Cl)cccc21 (racemic) [Example 11]
[A] true (1)

[Q] Cool, now NCC1CNc2cccc(-c3ccc(Cl)cc3C(F)(F)F)c2O1 (racemic) [Example 18]
[A] true (1)

[Q] Cool, now COc1ccc(-c2cccc3c2OC(CN)CN3)c(C)c1 (racemic) [Example 24]
[A] false (0)

[Q] Cool, now NCC1CNc2cccc(-c3ccccc3C(F)(F)F)c2O1 (racemic) [Example 22]
[A] true (1)

[Q] Cool, now NCC1CNc2cc(F)cc(-c3c(Cl)cccc3Cl)c2O1 (racemic) [Example 10]
[A] true (1)

[Q] Cool, now NCC1CNc2cccc(-c3ccc(C(F)(F)F)cc3C(F)(F)F)c2O1 (racemic) [Example 23]
[A] false (0)

[Q] Cool, now Cc1ccccc1-c1cccc2c1OC(CN)CN2 (racemic) [Example 17]
[A] false (0)

[Q] Cool, now NCC1COc2cc(F)cc(-c3cccc(Cl)c3)c2N1 (racemic) [Example 65]
[A] false (0)

----------
Please go through the items and note down their melting point.
Where a name gives a salt, the structure may show the parent alone.

# compound, melting point
measured = [
    ("COc1ccc(-c2cc(F)cc3c2NC(CN)CO3)c(Cl)c1 (racemic) (as salt: hydrochloride) [Example 59]", "84 °C (dec.)"),
    ("COc1ccc(-c2cc(F)cc3c2NC(CN)CO3)cc1 (racemic) (as salt: hydrochloride) [Example 61]", "72 °C (dec.)"),
]

[Q] Entry under review: NCC1COc2cc(Cl)cc(-c3ccc(C(F)(F)F)cc3C(F)(F)F)c2N1 (racemic) (as salt: hydrochloride) [Example 38] . Reported melting point?
[A] 98 °C (dec.)

----------
molecular target: human 5-HT2C receptor (Homo sapiens); construct: membrane preparation; experiment: 5-HT2C receptor-stimulated calcium mobilization (FLIPR) in CHO cells; conditions: calcium mobilization, CHO cells; read-out: 5-HT2C Function EC50
Please go through the items and note down their log10 EC50.
The figures below represent log10 of EC50, where EC50 is stated in nM.

Here is how some compounds turned out for log10 EC50.
# compound, endpoint, readout_number
records = [
    ("COc1ccc(-c2cccc3c2OC(CN)CN3C)cc1 (racemic)", "log10 EC50", 1.85),
    ("NCC1CNc2cccc(-c3ccc(C(F)(F)F)cc3C(F)(F)F)c2O1 (racemic)", "log10 EC50", 2.56),
    ("CN1CC(CN)Oc2c(-c3ccccc3F)cccc21 (racemic)", "log10 EC50", 1.86),
]

Dear colleague, could you send me log10 EC50 for each of the items below? Thanks.
1. COc1ccc(-c2cc(Cl)cc3c2NC(CN)CO3)c(C)c1 (racemic)
2. NCC1CNc2cc(F)cc(-c3c(Cl)cccc3Cl)c2O1 (racemic)
3. NCC1CNc2cccc(-c3ccc(Cl)cc3C(F)(F)F)c2O1 (racemic)
4. CN1CC(CN)Oc2c(-c3ccccc3C(F)(F)F)cccc21 (racemic)

[A]
3.11
0.70
2.04
1.79

----------
molecular target: human 5-HT2C receptor (Homo sapiens, UniProt P28335); construct: membrane preparation; experiment: 5-HT2C receptor-stimulated calcium mobilization (FLIPR) in CHO cells; settings: calcium mobilization, CHO cells; read-out: 5-HT2C Function EC50
// assign YES if EC50 falls strictly below 40 nM, else NO (ties count as NO)

# compound, target_or_test_system, class_name
records = [
    ("COc1ccc(-c2cccc3c2OC(CN)CN3C)c(C)c1 (racemic) [Example 5]", "human 5-HT2C receptor (Homo sapiens, UniProt P28335)", "YES"),
]

[Q] Please let me know if NC[C@H]1CNc2cccc(-c3ccccc3Cl)c2O1 [Example 39] shows EC50 below 40 nM.
[A] YES

[Q] Cool, now NC[C@@H]1CNc2cccc(-c3ccccc3C(F)(F)F)c2O1 [Example 41]
[A] YES

[Q] Cool, now COc1ccc(-c2cc(Cl)cc3c2NC(CN)CO3)c(Cl)c1 (racemic) [Example 32]
[A] NO

[Q] Cool, now COc1ccc(-c2cc(F)cc3c2NC(CN)CO3)c(Cl)c1 (racemic) [Example 59]
[A] NO
